Data provenance is the NIST ThermoML archive (doi:10.1016/j.fluid.2006.03.015).

- Assay: molar heat capacity at constant pressure
- Condition Description: 335.15 K; 101.33 kPa; Liquid; Small sample (50 mg) DSC
Examples of compounds with documented molar heat capacity at constant pressure follow.
Could you give me the number in J/K/mol? Just the number is fine.

# annotated cases, reported molar heat capacity at constant pressure shown
{"columns": ["Compound", "Unit Abbreviation", "molar heat capacity at constant pressure"],
 "data": [
  ["CCCCn1cc[n+](C)c1.O=S(=O)([O-])C(F)(F)F [1-butyl-3-methylimidazolium trifluoromethanesulfonate]", "J/K/mol", 457],
  ["CCCCCC[n+]1ccn(C)c1.O=S(=O)([N-]S(=O)(=O)C(F)(F)F)C(F)(F)F", "J/K/mol", 681],
  ["CCCCCCn1cc[n+](C)c1.O=S(=O)([O-])C(F)(F)F [1-hexyl-3-methylimidazolium trifluoromethanesulfonate]", "J/K/mol", 536],
  ["c1ccccc1 [benzene]", "J/K/mol", 145.8]
]}

Now, please, on to the next compound.
GET /values?readout=molar heat capacity at constant pressure&item= O [water] 75.11

====

- Assay: molar heat capacity at constant pressure
- Condition Description: 398.15 K; 101.33 kPa; Liquid; modulated-temperature differential scanning calorimetry MDSC
Assign satisfied whenever molar heat capacity at constant pressure does not fall below 600 J/K/mol; assign not satisfied whenever it does.

See these solved cases before continuing.
{"columns": ["Compound", "Assigned Class"],
 "data": [
  ["CCCCCCn1cc[n+](C)c1.O=S(=O)([O-])C(F)(F)F [1-hexyl-3-methylimidazolium trifluoromethanesulfonate]", "not satisfied"],
  ["CCn1cc[n+](C)c1.O=S(=O)([O-])C(F)(F)F [1-ethyl-3-methylimidazolium trifluoromethanesulfonate]", "not satisfied"],
  ["CCCCCCCCn1cc[n+](C)c1.O=S(=O)([O-])C(F)(F)F [1-octyl-3-methylimidazolium trifluoromethanesulfonate]", "satisfied"],
  ["CCCCn1cc[n+](C)c1.O=S(=O)([O-])C(F)(F)F [1-butyl-3-methylimidazolium trifluoromethanesulfonate]", "not satisfied"],
  ["CCCCCC[n+]1ccn(C)c1.O=S(=O)([N-]S(=O)(=O)C(F)(F)F)C(F)(F)F", "satisfied"]
]}

Consider now this further compound.
Record CCCC[n+]1ccccc1.O=S(=O)([N-]S(=O)(=O)C(F)(F)F)C(F)(F)F [1-butylpyridinium bis[(trifluoromethyl)sulfonyl]imide] ; criterion: molar heat capacity at constant pressure no lower than 600 J/K/mol. Met? satisfied

====

- Assay: molar heat capacity at constant pressure
- Condition Description: 373.15 K; 101.33 kPa; Liquid; modulated-temperature differential scanning calorimetry MDSC
Numbers after ± are expanded uncertainties.
Readout Label: molar heat capacity at constant pressure
I'd appreciate it if you wrote the number followed by its unit.

See these solved cases before continuing.
{"columns": ["Molecule", "molar heat capacity at constant pressure"],
 "data": [
  ["CCCCn1cc[n+](C)c1.O=S(=O)([O-])C(F)(F)F [1-butyl-3-methylimidazolium trifluoromethanesulfonate]", "464 ± 23 J/K/mol"],
  ["CCCCCCn1cc[n+](C)c1.O=S(=O)([O-])C(F)(F)F [1-hexyl-3-methylimidazolium trifluoromethanesulfonate]", "543 ± 27 J/K/mol"],
  ["CCCCCC[n+]1ccn(C)c1.O=S(=O)([N-]S(=O)(=O)C(F)(F)F)C(F)(F)F", "706 ± 35 J/K/mol"],
  ["CCCCCCCCn1cc[n+](C)c1.O=S(=O)([O-])C(F)(F)F [1-octyl-3-methylimidazolium trifluoromethanesulfonate]", "628 ± 31 J/K/mol"]
]}

May I ask what molar heat capacity at constant pressure has been recorded for CCCC[n+]1ccccc1.O=S(=O)([N-]S(=O)(=O)C(F)(F)F)C(F)(F)F [1-butylpyridinium bis[(trifluoromethyl)sulfonyl]imide] ? 628 ± 31 J/K/mol

Another molecule: CCn1cc[n+](C)c1.O=S(=O)([O-])C(F)(F)F [1-ethyl-3-methylimidazolium trifluoromethanesulfonate] 409 ± 20 J/K/mol

====

- Assay: molar heat capacity at constant pressure
- Condition Description: 330.15 K; 101.33 kPa; Liquid; Small sample (50 mg) DSC
Measured molar heat capacity at constant pressure of individual entries
Give the value in J/K/mol but do not write J/K/mol after it.

# count of solved cases: 2
{"columns": ["Compound", "Unit Abbreviation", "molar heat capacity at constant pressure"],
 "data": [
  ["CCn1cc[n+](C)c1.O=S(=O)([O-])C(F)(F)F [1-ethyl-3-methylimidazolium trifluoromethanesulfonate]", "J/K/mol", 392],
  ["CCCCn1cc[n+](C)c1.O=S(=O)([O-])C(F)(F)F [1-butyl-3-methylimidazolium trifluoromethanesulfonate]", "J/K/mol", 454]
]}

// returns reported molar heat capacity at constant pressure for input CCCCCCn1cc[n+](C)c1.O=S(=O)([O-])C(F)(F)F [1-hexyl-3-methylimidazolium trifluoromethanesulfonate] 532

What would you report for `O` ? 75.09

====

Listed here: items and their measured molar heat capacity at constant pressure.
- Assay: molar heat capacity at constant pressure
- Condition Description: 408.15 K; 101.33 kPa; Liquid; modulated-temperature differential scanning calorimetry MDSC
Write the answer as a number in J/K/mol, unit excluded.

{"columns": ["Compound", "Readout Label", "Unit Abbreviation", "Measured Number"],
 "data": [
  ["CCCCCC[n+]1ccn(C)c1.O=S(=O)([N-]S(=O)(=O)C(F)(F)F)C(F)(F)F", "molar heat capacity at constant pressure", "J/K/mol", 723],
  ["CCn1cc[n+](C)c1.O=S(=O)([O-])C(F)(F)F [1-ethyl-3-methylimidazolium trifluoromethanesulfonate]", "molar heat capacity at constant pressure", "J/K/mol", 419],
  ["CCCCCCCCn1cc[n+](C)c1.O=S(=O)([O-])C(F)(F)F [1-octyl-3-methylimidazolium trifluoromethanesulfonate]", "molar heat capacity at constant pressure", "J/K/mol", 648]
]}

Quick one: molar heat capacity at constant pressure for CCCCCCn1cc[n+](C)c1.O=S(=O)([O-])C(F)(F)F [1-hexyl-3-methylimidazolium trifluoromethanesulfonate] ? 557

Next entry: CCCC[n+]1ccccc1.O=S(=O)([N-]S(=O)(=O)C(F)(F)F)C(F)(F)F [1-butylpyridinium bis[(trifluoromethyl)sulfonyl]imide] 642

Next compound: CCCCn1cc[n+](C)c1.O=S(=O)([O-])C(F)(F)F [1-butyl-3-methylimidazolium trifluoromethanesulfonate] 477

====

- Assay: molar heat capacity at constant pressure
- Condition Description: 385.15 K; 101.33 kPa; Liquid; Small sample (50 mg) DSC
± gives the expanded uncertainty stated by the source.
Overview of reported molar heat capacity at constant pressure across a group of compounds:

Worked set:
{"columns": ["Compound", "molar heat capacity at constant pressure"],
 "data": [
  ["CCCCCCCCn1cc[n+](C)c1.O=S(=O)([O-])C(F)(F)F [1-octyl-3-methylimidazolium trifluoromethanesulfonate]", "652 ± 34 J/K/mol"],
  ["CCCCn1cc[n+](C)c1.O=S(=O)([O-])C(F)(F)F [1-butyl-3-methylimidazolium trifluoromethanesulfonate]", "484 ± 25 J/K/mol"],
  ["CCCCCCn1cc[n+](C)c1.O=S(=O)([O-])C(F)(F)F [1-hexyl-3-methylimidazolium trifluoromethanesulfonate]", "565 ± 29 J/K/mol"],
  ["CCn1cc[n+](C)c1.O=S(=O)([O-])C(F)(F)F [1-ethyl-3-methylimidazolium trifluoromethanesulfonate]", "410 ± 21 J/K/mol"]
]}

Can you look up the measured molar heat capacity at constant pressure of `CCCCCC[n+]1ccn(C)c1.O=S(=O)([N-]S(=O)(=O)C(F)(F)F)C(F)(F)F` for me? 709 ± 37 J/K/mol

// query: CCCC[n+]1ccccc1.O=S(=O)([N-]S(=O)(=O)C(F)(F)F)C(F)(F)F [1-butylpyridinium bis[(trifluoromethyl)sulfonyl]imide] 619 ± 32 J/K/mol

====

- Assay: molar heat capacity at constant pressure
- Condition Description: 320.15 K; 101.33 kPa; Liquid; Small sample (50 mg) DSC
Given measured molar heat capacity at constant pressure, output Criterion met if it is greater than or equal to 400 J/K/mol and Criterion not met if not.

Record excerpt, results attached:
{"columns": ["Compound", "Assigned Class"],
 "data": [
  ["CCCCn1cc[n+](C)c1.O=S(=O)([O-])C(F)(F)F [1-butyl-3-methylimidazolium trifluoromethanesulfonate]", "Criterion met"],
  ["CCCCCCn1cc[n+](C)c1.O=S(=O)([O-])C(F)(F)F [1-hexyl-3-methylimidazolium trifluoromethanesulfonate]", "Criterion met"],
  ["c1ccccc1 [benzene]", "Criterion not met"],
  ["CCCCCC[n+]1ccn(C)c1.O=S(=O)([N-]S(=O)(=O)C(F)(F)F)C(F)(F)F", "Criterion met"],
  ["C1CCOC1 [tetrahydrofuran]", "Criterion not met"]
]}

hey, is molar heat capacity at constant pressure for this one >= 400 J/K/mol? O [water] Criterion not met

// repeat for CCCCCCCCn1cc[n+](C)c1.O=S(=O)([O-])C(F)(F)F [1-octyl-3-methylimidazolium trifluoromethanesulfonate] and report Criterion met
